Just for reference, PubChem BioAssay (EPA / NIEHS) is where these values come from.

Experiment: ATG_BRE_CIS: Attagene CIS-FACTORIAL HepG2 Assay for human Bone Morphogenetic Protein (BMP) Response Element (BRE) (AID 2282933)
Details: HepG2 BMP response element reporter, Attagene transcription factor profiling; actives raise or lower the signal
Activity calls are given as the source filed them. The calls were made as follows: active = hit-call score of the fitted dose curve at least 0.9, where 1 is the maximum; inactive = score below 0.9.
Labels: T for active, F for inactive

>>> label_value("CC(C)(c1ccccc1)c1cc(-n2nc3ccccc3n2)c(O)c(C(C)(C)c2ccccc2)c1")
"F"
>>> label_value("OCC(c1ccc(Cl)cc1)c1ccc(Cl)cc1")
"F"
>>> label_value("C=C(C)C(=O)OCC(CC)CCCC (configuration not stated)")
"F"
>>> label_value("C[N+](C)(C)Cc1ccccc1")
"F"
>>> label_value("CCNc1nc(NCC)nc(SC)n1")
"F"
>>> label_value("CCOP(=O)(OCC)SCCSCC")
"F"
>>> label_value("CCOC(=O)CC(=O)CCl")
"F"
>>> label_value("CC(C)C(C)(N)C#N (configuration not stated)")
"F"
>>> label_value("CCCCCCCCCCCCCCC(Br)C(=O)O (configuration not stated)")
"F"
>>> label_value("COc1ccccc1N")
"F"
>>> label_value("CCCCS(=O)(=O)Cl")
"F"
>>> label_value("CCCCCCCCCCCCN(C)C")
"F"
>>> label_value("O=C(O)CC(O)(CC(=O)O)C(=O)O")
"F"
>>> label_value("Cc1ccccc1OP(=O)(Oc1ccccc1)Oc1ccccc1")
"T"
>>> label_value("[Cl][Sn]([c]1ccccc1)([c]1ccccc1)[c]1ccccc1")
"F"
>>> label_value("O=NN1CCCCCC1")
"F"
>>> label_value("Nc1ncn[nH]1")
"F"
>>> label_value("O=[N+]([O-])c1ccc(Nc2ccccc2)cc1")
"T"
>>> label_value("CC(=O)C(F)(F)C(F)(F)F")
"F"
>>> label_value("N#CS")
"F"
>>> label_value("CCCCC(CC)C(=O)Cl (configuration not stated)")
"F"
>>> label_value("CCCCN(CCCC)C(=S)S")
"T"
>>> label_value("Brc1ccc(Br)cc1")
"F"
>>> label_value("CC(C)(C1CCC(O)CC1)C1CCC(O)CC1 (configuration not stated)")
"F"
>>> label_value("Cl[C@H]1OCCO[C@@H]1Cl")
"F"
>>> label_value("CCOP(=S)(OCC)Oc1ccc(Cl)cc1Cl")
"F"
>>> label_value("O=C=Nc1ccc(Cl)cc1")
"F"
>>> label_value("CCOC(=O)Cc1ccccc1")
"F"
>>> label_value("CCC[N+](CCC)(CCC)CCC")
"F"
>>> label_value("COC(F)(C(F)(F)C(F)(F)F)C(F)(C(F)(F)F)C(F)(F)F (configuration not stated)")
"F"
>>> label_value("O=NN1CCCCCCC1")
"F"
>>> label_value("Cc1cc(Cl)ccc1O")
"F"

---

Test: ATG_Oct_MLP_CIS: Attagene CIS-FACTORIAL HepG2 Assay for human Octamer-Binding Transcription Factor (Oct) (AID 2282993)
Conditions: HepG2 Attagene cis-factorial Oct reporter, mRNA; actives raise or lower the signal
The source made the active and inactive calls. How the source made its calls: active means hit-call score of the fitted dose curve at least 0.9, where 1 is the maximum; inactive means score below 0.9.
Labels: active, inactive

>>> label_value("O=S(=O)(F)C(F)(F)C(F)(F)C(F)(F)C(F)(F)F")
"inactive"
>>> label_value("CC(C)[C@@H](Nc1ccc(C(F)(F)F)cc1Cl)C(=O)OC(C#N)c1cccc(Oc2ccccc2)c1 (some centres undefined)")
"inactive"
>>> label_value("O=[N+]([O-])c1ccccc1O")
"inactive"
>>> label_value("O=CCCl")
"active"
>>> label_value("CC(C)C(C)(N)C#N (centres undefined)")
"inactive"
>>> label_value("Nc1c(Oc2ccccc2)cc(O)c2c1C(=O)c1ccccc1C2=O")
"inactive"
>>> label_value("CCCCOC(C)=O")
"inactive"
>>> label_value("CCCCN(CCCC)C(=S)[S-].CCCCN(CCCC)C(=S)[S-].[Ni+2]")
"inactive"
>>> label_value("CC(C)=CC1C(C(=O)OCc2cccc(Oc3ccccc3)c2)C1(C)C (centres undefined)")
"inactive"
>>> label_value("O=C(NC(=O)c1c(F)cccc1F)Nc1cc(Cl)c(Oc2ncc(C(F)(F)F)cc2Cl)c(Cl)c1")
"inactive"
>>> label_value("O=S(=O)(C(Cl)(Cl)Cl)C(Cl)(Cl)Cl")
"active"
>>> label_value("CCOP(=S)(OCC)OP(=S)(OCC)OCC")
"inactive"
>>> label_value("O=S1(=O)OC(c2cc(Br)c(O)c(Br)c2)(c2cc(Br)c(O)c(Br)c2)c2ccccc21")
"inactive"
>>> label_value("CCC[CH2][Sn]([CH2]CCC)([CH2]CCC)[CH2]CCC")
"active"
>>> label_value("O=C(O)COc1cc(Cl)c(Cl)cc1Cl")
"inactive"
>>> label_value("CC(C)[N+](=O)[O-]")
"inactive"
>>> label_value("C=CCCl")
"inactive"
>>> label_value("Oc1c(Cl)cc(Cl)cc1Cl")
"inactive"
>>> label_value("CCCCCCCCCCCCOS(=O)(=O)O")
"inactive"
>>> label_value("OCCN(CCO)CCO")
"inactive"
>>> label_value("CCCCC(CC)C(=O)Cl (centres undefined)")
"inactive"
>>> label_value("[Cl][Sn]([c]1ccccc1)([c]1ccccc1)[c]1ccccc1")
"active"
>>> label_value("CN(CCCC(O)c1cccnc1)N=O (centres undefined)")
"inactive"
>>> label_value("ClCc1ccccc1Cl")
"active"
>>> label_value("C=CC(=O)[O][Sn]([CH2]CCC)([CH2]CCC)[CH2]CCC")
"active"
>>> label_value("C[C@@H]1O[C@@H](O[C@H]2C[C@@H](O)[C@]3(CO)[C@H]4[C@H](O)C[C@]5(C)[C@@H](C6=CC(=O)OC6)CC[C@]5(O)[C@@H]4CC[C@]3(O)C2)[C@H](O)[C@H](O)[C@H]1O")
"active"
>>> label_value("CC(C)[C@H](C(=O)OC(C#N)c1cccc(Oc2ccccc2)c1)c1ccc(OC(F)F)cc1 (some centres undefined)")
"inactive"
>>> label_value("COc1ccc(N)cc1")
"inactive"
>>> label_value("C=CC(=O)NC(C)(C)CC(C)=O")
"inactive"
>>> label_value("CCCCC(CC)COC(=O)Cl (centres undefined)")
"inactive"
>>> label_value("CN(C)[C@@H]1C(=O)C(C(N)=O)=C(O)[C@@]2(O)C(=O)C3=C(O)c4c(O)ccc(Cl)c4[C@@](C)(O)[C@H]3C[C@@H]12")
"inactive"
>>> label_value("C[As+](C)(C)CC(=O)[O-]")
"inactive"
>>> label_value("c1csc(-c2ccc(-c3cccs3)s2)c1")
"active"
>>> label_value("Nc1cccnc1")
"inactive"
>>> label_value("ClCCCCl")
"inactive"
>>> label_value("Cc1cc(C)cc(C)c1")
"inactive"
>>> label_value("CCCCOP(=O)(CCCC)OCCCC")
"inactive"
>>> label_value("BrCc1ccc(Br)cc1")
"inactive"
>>> label_value("Clc1cccc(Cl)c1")
"inactive"
>>> label_value("CCCCCCCCCCCCCl")
"inactive"
>>> label_value("CC(C)CP(=S)(S)CC(C)C")
"inactive"
>>> label_value("CC[N+](CC)(CC)CC")
"inactive"
>>> label_value("CC(C)(c1ccccc1)c1cc(-n2nc3ccccc3n2)c(O)c(C(C)(C)c2ccccc2)c1")
"inactive"
>>> label_value("Cc1ccc(CCl)cc1")
"inactive"
>>> label_value("COCCl")
"inactive"
>>> label_value("CCOP(=O)(OCC)OC(=CCl)c1ccc(Cl)cc1Cl")
"inactive"
>>> label_value("C=CCOC(F)(C(F)(F)F)C(F)(F)F")
"inactive"
>>> label_value("CCOP(=S)(OCC)SCSc1cc(Cl)ccc1Cl")
"inactive"
>>> label_value("C#CCOC(=O)/C=C(C)/C=C/CC(C)CCCC(C)C (centres undefined)")
"active"
>>> label_value("C[C@H]1C(=O)O[C@@H]2CCN3CC=C(COC(=O)[C@](C)(O)[C@]1(C)O)[C@H]23")
"inactive"
>>> label_value("CC1(C)[C@H](/C=C2\\CCSC2=O)[C@@H]1C(=O)OCc1coc(Cc2ccccc2)c1")
"inactive"
>>> label_value("CCCCN(CCCC)C(=S)S")
"inactive"
>>> label_value("CCCCCCCCCCCCN(C)C")
"active"
>>> label_value("OCC(c1ccc(Cl)cc1)c1ccc(Cl)cc1")
"active"

---

Assay: ATG_PXRE_CIS: Attagene CIS-FACTORIAL HepG2 Assay for human Pregnane X Receptor Element (PXRE) (AID 2282957)
Settings: HepG2 Attagene CIS-FACTORIAL PXRE reporter, mRNA; actives raise or lower the signal
Active and inactive are the calls of the source. How the source made its calls: active means hit-call score of the fitted dose curve at least 0.9, where 1 is the maximum; inactive means score below 0.9.
Labels: active, inactive

>>> label_value("Nc1c(Oc2ccccc2)cc(O)c2c1C(=O)c1ccccc1C2=O")
"active"
>>> label_value("C=CCN=C=S")
"inactive"
>>> label_value("CCOP(=O)(OCC)OC(=CCl)c1ccc(Cl)cc1Cl")
"active"
>>> label_value("C=C(C)C(=O)OCC(CC)CCCC (centres undefined)")
"inactive"
>>> label_value("Cc1cc(Cl)ccc1O")
"inactive"
>>> label_value("CN(C)[C@@H]1C(=O)C(C(N)=O)=C(O)[C@@]2(O)C(=O)C3=C(O)c4c(O)ccc(Cl)c4[C@@](C)(O)[C@H]3C[C@@H]12")
"inactive"
>>> label_value("Nc1ccc(Br)cc1")
"inactive"
>>> label_value("O=C(Cc1ccccc1)OCCc1ccccc1")
"inactive"
>>> label_value("CN(C)c1ccc(N=O)cc1")
"inactive"
>>> label_value("OCC(c1ccc(Cl)cc1)c1ccc(Cl)cc1")
"active"
>>> label_value("NC(=O)CCl")
"active"
>>> label_value("CC(O)(CS(=O)(=O)c1ccc(F)cc1)C(=O)Nc1ccc(C#N)c(C(F)(F)F)c1 (centres undefined)")
"active"
>>> label_value("CC1(C)COP(Oc2ccccc2)OC1")
"inactive"
>>> label_value("Nc1ncn[nH]1")
"inactive"
